// data source = patent US20250171542A1

- Subject of test: T1, canine PD-L1 (Acro Biosystems, Cat #PDL-C52H4) (canine, UniProt E2RKZ5 19-236)
- T1 construct: not shown: The vendor's tag, probably a polyhistidine tag
- T1 sequence: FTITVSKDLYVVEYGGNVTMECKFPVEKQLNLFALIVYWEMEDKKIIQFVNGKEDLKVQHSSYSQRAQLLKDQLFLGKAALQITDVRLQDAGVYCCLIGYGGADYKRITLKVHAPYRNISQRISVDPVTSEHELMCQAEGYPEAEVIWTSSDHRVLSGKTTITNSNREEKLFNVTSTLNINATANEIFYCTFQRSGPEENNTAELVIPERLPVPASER
- Procedure details: ELISA
Property name: binding result

1. 32E2 (antibody, human IgG1, V domains shown) VH: QEQLEESGGDLVKPEGSLTLTCTASGFSFSSSYYMSWVRQAPGMGLEWIASISGGVTDNAYYASWAKGRFTVSKTSSTTVTLQLTSLTAADTATYFCARDSSSGYFFLLWGPGTLVTVSS VL: LVMTQTPSSVSAAVGGTVTINCQASQNIYSNLAWYQQKPGQRPKLLIFGASNLRSGVPSRFKGSGSGTEYTLTISDLECADAATYYCQEGYSIGNVDNPFGGGTEVVVK; no binding
2. 33H7 (antibody, human IgG1, V domains shown) VH: QEQLVESGGGLVQPEGSLTVTCTASGFDLSRYFYMSWVRQAPGKGLEWIASISTGSDITDYASWAKGRFTISKTSSTTVTLQMTTLTAADTAIYFCARWTSGGGGFGLWGPGTLVTVSS VL: QVLTQTASPVSAAVGGTVTLNCQSSQSIYNNYLSWYQQRAGQPPKLLIYSTATLASGVPSRFKGSGSGTQFTLTISEIQCEDAATYYCQGYYSGYIWTFGGGTEVVVK; no binding
3. 28B3 (antibody, human IgG1, V domains shown) VH: QSVEESGGRLVTPGTPLTLSCTASGFSLSSYYMIWVRQAPGKGLEYIGYVYTGSGNTWYASWAKGRFAISKASTTVDLMITSPTTEDTATYFCASGADGVYDWGWDIWGPGTLVTVSL VL: DIVMTQTPASVEAAVGDTVTIKCQASQSIYSLLAWYQQKPGQRPKLLIAGASNLESGVPSRFSGSGSGTEYTLTISALECADAATYYCQNNYDSGRIYGLAFGGGTEVVVK; no binding
